Measured target: 3-hydroxyacyl-CoA dehydrogenase type-2 (Homo sapiens)
Method description: qHTS Assay for Inhibitors of HSD17B4, hydroxysteroid (17-beta) dehydrogenase 4;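 note: the protocol describes HADH2 (HSD17B10) and not the HSD17B4 of the title; nearly all actives have a fitted effect of over 70% in size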
Condition parameters: recombinant HSD17B10, NADH fluorescence kinetic; series mostly up to 57.1 µM
Hit rate of the full screen: of about 75,000 compounds, about 5,700 (7.6%) were called active. Roughly 7% stayed inconclusive and do not appear here. Calls come from the whole dose curve; as a rule, active = well fitted inhibition curve with a large enough effect; inconclusive = small, poorly fitted or top-dose-only effect; inactive = no such curve, though single readings can be large or run the other way. The sample holds actives, similar compounds and a random draw of the others, so the mix is not that of the screen.
Return exactly one item of active, inactive

Previously resolved entries follow.
COc1ccccc1CNc1ncnc2ccc(-c3ccc4c(c3)OCO4)cc12 : active
Cc1nnc(NC(=O)CCC(=O)N2CCC(C)CC2)s1 : inactive
CCSc1nc(C)nc2c1oc1ccccc12 : inactive
Fc1ccc2nc(N3CCCCC3)sc2c1 : inactive

input: For c1csc(-c2nc(-c3ccncc3)no2)c1 , what call appears in the results of this test?
output: inactive

input: For CC(C)OC(=O)C(C#N)c1nc2ccccc2nc1N1CCN(Cc2ccccc2)CC1 (stereo unspecified) , what call appears in the results of this test?
output: inactive
